- assay-method-text: Solubility test (visual, complete dissolution at prescribed concentration)
- Format: physicochemical
- Design: key: A: completely dissolved; B: partially undissolved
- applied-conditions: toluene, stirred at room temperature for one hour
parameter-measured: Solubility at concentration 1 wt %

CCCCC(CCCC)c1ccnc(-c2c(F)cc(F)c[c]2[Ir]([c]2cc(F)cc(F)c2-c2cc(C(CCCC)CCCC)ccn2)[c]2cc(F)cc(F)c2-c2cc(C(CCCC)CCCC)ccn2)c1 | B
CCCCCc1ccnc(-c2c(F)cc(F)c[c]2[Ir]([c]2cc(F)cc(F)c2-c2cc(CCCCC)ccn2)[c]2cc(F)cc(F)c2-c2cc(CCCCC)ccn2)c1 | B
CCCc1cc(-c2c(F)cc(F)c[c]2[Ir]([c]2cc(F)cc(F)c2-c2cc(CCC)c(CC)cn2)[c]2cc(F)cc(F)c2-c2cc(CCC)c(CC)cn2)ncc1CC | A
CC(C)(C)c1ccnc(-c2[c-]cc(F)cc2F)c1.CC(C)(C)c1ccnc(-c2[c-]cc(F)cc2F)c1.CC(C)(C)c1ccnc(-c2[c-]cc(F)cc2F)c1.[Ir+3] | A

----------
- assay-method-text: Solubility test (visual, complete dissolution at prescribed concentration)
- Format: physicochemical
- Design: key: A: completely dissolved; B: partially undissolved
- applied-conditions: chloroform, stirred at room temperature for one hour
parameter-measured: Solubility at concentration 0.1 wt %

CCCCC(CCCC)c1ccnc(-c2c(F)cc(F)c[c]2[Ir]([c]2cc(F)cc(F)c2-c2cc(C(CCCC)CCCC)ccn2)[c]2cc(F)cc(F)c2-c2cc(C(CCCC)CCCC)ccn2)c1 [Compound (C) facial complex] | A
CC(C)(C)c1ccnc(-c2[c-]cc(F)cc2F)c1.CC(C)(C)c1ccnc(-c2[c-]cc(F)cc2F)c1.CC(C)(C)c1ccnc(-c2[c-]cc(F)cc2F)c1.[Ir+3] [Compound (A) meridional complex] | A
CCCCCc1ccnc(-c2c(F)cc(F)c[c]2[Ir]([c]2cc(F)cc(F)c2-c2cc(CCCCC)ccn2)[c]2cc(F)cc(F)c2-c2cc(CCCCC)ccn2)c1 [Compound (B) facial complex] | A
CCCc1cc(-c2c(F)cc(F)c[c]2[Ir]([c]2cc(F)cc(F)c2-c2cc(CCC)c(CC)cn2)[c]2cc(F)cc(F)c2-c2cc(CCC)c(CC)cn2)ncc1CC [Compound (D) facial complex] | A

----------
- assay-method-text: Solubility test (visual, complete dissolution at prescribed concentration)
- Assay type: physicochemical
- Set-up: key: A: completely dissolved; B: partially undissolved
- applied-conditions: toluene, stirred at room temperature for one hour
parameter-measured: Solubility at concentration 0.5 wt %

CCCc1cc(-c2c(F)cc(F)c[c]2[Ir]([c]2cc(F)cc(F)c2-c2cc(CCC)c(CC)cn2)[c]2cc(F)cc(F)c2-c2cc(CCC)c(CC)cn2)ncc1CC [Compound (D) facial complex] | A
CCCCCc1ccnc(-c2c(F)cc(F)c[c]2[Ir]([c]2cc(F)cc(F)c2-c2cc(CCCCC)ccn2)[c]2cc(F)cc(F)c2-c2cc(CCCCC)ccn2)c1 [Compound (B) facial complex] | B
CCCCC(CCCC)c1ccnc(-c2c(F)cc(F)c[c]2[Ir]([c]2cc(F)cc(F)c2-c2cc(C(CCCC)CCCC)ccn2)[c]2cc(F)cc(F)c2-c2cc(C(CCCC)CCCC)ccn2)c1 [Compound (C) facial complex] | A
CC(C)(C)c1ccnc(-c2[c-]cc(F)cc2F)c1.CC(C)(C)c1ccnc(-c2[c-]cc(F)cc2F)c1.CC(C)(C)c1ccnc(-c2[c-]cc(F)cc2F)c1.[Ir+3] [Compound (A) meridional complex] | A

The reported measurements were obtained from patent US20090315454A1.
